experimentalParameters: in acetonitrile, 313.15 K

{"smilesNotation": "O=C(O)c1cccc(O)c1", "solubility (mole fraction)": 0.0199}

###

experimentalParameters: in ethyl acetate, 278.15 K

{"smilesNotation": "O=C(O)c1cccc(O)c1", "solubility (mole fraction)": 0.0377}

###

experimentalParameters: in methanol, 278.15 K

{"smilesNotation": "O=C(O)c1cccc(O)c1", "solubility (mole fraction)": 0.0815}

###

experimentalParameters: in n-butyl acetate, 288.15 K

{"smilesNotation": "O=C(O)c1cccc(O)c1", "solubility (mole fraction)": 0.043}

###

experimentalParameters: in acetonitrile, 308.15 K
quantityMeasured: solubility (mole fraction)

{"smilesNotation": "O=C(O)c1cccc(O)c1", "reportedResult": 0.017}
